Molecular target: Lysine-specific demethylase 5B (Homo sapiens) (UniProt Q9UGL1)
Sequence (Q9UGL1 whole entry, looked up): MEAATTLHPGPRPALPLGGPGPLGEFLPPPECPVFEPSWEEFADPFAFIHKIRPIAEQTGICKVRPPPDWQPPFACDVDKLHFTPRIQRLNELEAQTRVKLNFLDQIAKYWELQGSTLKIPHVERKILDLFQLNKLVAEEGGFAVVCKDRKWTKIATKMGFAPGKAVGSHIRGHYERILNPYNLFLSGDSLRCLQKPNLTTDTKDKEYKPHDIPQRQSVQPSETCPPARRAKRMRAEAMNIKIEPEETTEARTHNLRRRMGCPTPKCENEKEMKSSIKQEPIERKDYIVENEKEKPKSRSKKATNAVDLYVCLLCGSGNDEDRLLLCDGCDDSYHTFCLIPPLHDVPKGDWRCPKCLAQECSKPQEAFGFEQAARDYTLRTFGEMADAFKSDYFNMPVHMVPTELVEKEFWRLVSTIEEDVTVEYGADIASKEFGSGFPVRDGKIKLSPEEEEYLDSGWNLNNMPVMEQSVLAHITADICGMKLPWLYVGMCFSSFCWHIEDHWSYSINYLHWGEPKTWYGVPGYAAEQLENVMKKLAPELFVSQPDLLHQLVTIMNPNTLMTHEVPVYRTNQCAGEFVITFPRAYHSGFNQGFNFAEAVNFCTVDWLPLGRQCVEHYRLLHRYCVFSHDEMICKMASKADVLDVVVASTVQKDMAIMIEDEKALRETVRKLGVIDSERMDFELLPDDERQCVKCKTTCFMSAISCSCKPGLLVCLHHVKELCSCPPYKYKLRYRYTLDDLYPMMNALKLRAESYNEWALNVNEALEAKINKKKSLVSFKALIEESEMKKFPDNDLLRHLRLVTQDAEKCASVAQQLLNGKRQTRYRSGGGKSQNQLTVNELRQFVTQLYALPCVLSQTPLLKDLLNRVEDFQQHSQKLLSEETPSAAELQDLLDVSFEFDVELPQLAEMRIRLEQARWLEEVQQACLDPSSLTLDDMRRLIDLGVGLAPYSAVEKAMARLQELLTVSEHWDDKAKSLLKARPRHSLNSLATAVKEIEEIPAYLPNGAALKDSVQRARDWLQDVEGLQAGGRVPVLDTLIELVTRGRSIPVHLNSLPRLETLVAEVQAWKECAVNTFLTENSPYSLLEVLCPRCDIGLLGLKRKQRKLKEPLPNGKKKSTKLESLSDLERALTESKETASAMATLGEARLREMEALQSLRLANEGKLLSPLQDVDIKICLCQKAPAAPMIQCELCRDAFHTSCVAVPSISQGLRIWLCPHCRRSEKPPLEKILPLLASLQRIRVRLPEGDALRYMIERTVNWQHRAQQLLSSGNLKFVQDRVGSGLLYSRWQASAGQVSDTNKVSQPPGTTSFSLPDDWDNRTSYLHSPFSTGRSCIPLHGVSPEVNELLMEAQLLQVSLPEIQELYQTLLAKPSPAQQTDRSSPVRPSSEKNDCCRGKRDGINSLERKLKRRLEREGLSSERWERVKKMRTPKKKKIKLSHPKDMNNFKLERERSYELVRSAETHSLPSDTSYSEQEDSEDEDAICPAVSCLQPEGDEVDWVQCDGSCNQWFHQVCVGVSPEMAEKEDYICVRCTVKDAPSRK
Test: Primary screen for KDM5B Histone Demethylases FDH-coupled qHTS; also: nearly all actives have a fitted effect of over 70% in size
Settings: FDH-coupled NADH fluorescence; series mostly up to 57.7 µM
Source text: Assay Submitter (PI): Qin Yan, Ph.D. (Yale University) and Xiaodong Cheng, Ph.D. (MD Anderson) This project was funded as part of the NCI NEXT Program and Chemical Biology Consortium (CBC) The histone demethylases, KDM5A and KDM5B catalyze the demethylation of lysine 4 on histone H3 (H3K4me3/2). They are overexpressed in a variety of cancers and have been implicated in cancer cell growth, metastasis, drug resistance, and tumor growth. […]
About 5,700 (2.6%) of roughly 220,000 compounds were called active. Inconclusive results (about 18%) are left out. Calls follow the shape of the dose curve; as a rule, active = well fitted inhibition curve with a large enough effect; inconclusive = small, poorly fitted or top-dose-only effect; inactive = no such curve, though single readings can be large or run the other way. Many of the other results were omitted from the sample, so actives are more common in it than they were.
In this exercise, the only acceptable responses are T = active, F = inactive

Assay result, entry Cc1ccc2[nH]cc(CCNC(=O)c3ccccc3C)c2c1 — outcome?
F

Follow-up entry: Brc1ccc(/C=N/N=C/c2ccc(Br)s2)s1
F

And then COCc1nc(CCNC(=O)CCc2ccccc2)no1 , what is it?
F

====

Biological target: Lysine-specific demethylase 5B (Homo sapiens) (UniProt Q9UGL1)
Experiment: Primary screen for KDM5B Histone Demethylases FDH-coupled qHTS; also: nearly all actives have a fitted effect of over 70% in size
Settings: FDH-coupled NADH fluorescence; series mostly up to 57.7 µM
Out of some 220,000 compounds screened, about 5,700 (2.6%) were called active. Not shown: some 18% with an inconclusive outcome. The sample as a whole holds a higher share of actives than the screen did.
Reported endpoint: outcome

Solved cases below.
| Molecule | outcome |
| --- | --- |
| O=C(COC(=O)c1cc2ccccc2[nH]1)NCc1ccc(F)cc1 | inactive |
| Cn1c(=O)[nH]c(=O)c2c1nc(N1CCC(Cc3ccccc3)CC1)n2CCCc1ccccc1 | inactive |
| COc1cc2c(C(=O)N(C)c3cc(Cl)ccc3OC)cn(C)c(=O)c2cc1OC | inactive |
| Cc1ccc2[nH]c(=O)c(COC(=O)c3ccccn3)cc2c1 | inactive |
| CC(NC(=O)c1ccc2c(c1)CCCC2)c1ccccc1 (stereo unspecified) | inactive |
| CCOC(=O)N1CCN(Cc2cc(=O)oc3c(C)c(C)cc(C)c23)CC1 | inactive |
| CCC(=O)c1ccc(OC(=O)c2nn(C(C)C)c(=O)c3ccccc23)cc1 | inactive |
| CCN1C(=O)C(=O)N(CC(=O)Nc2cc(C)ccc2C)C1=O | inactive |

Please look at the items below and tell me outcome for each one, in order.
1. O=c1oc2ccccc2cc1-c1nc(-c2ccc(F)cc2)no1
2. Cc1ccc(CCC(=O)NCc2cccnc2)cc1
3. O=C(OCc1ccc(F)cc1)c1cnc2ccccc2n1

1. inactive
2. inactive
3. inactive

====

Biological target: Lysine-specific demethylase 5B (Homo sapiens) (UniProt Q9UGL1)
Experiment: Primary screen for KDM5B Histone Demethylases FDH-coupled qHTS; also: nearly all actives have a fitted effect of over 70% in size
Conditions: FDH-coupled NADH fluorescence (FDH is formaldehyde dehydrogenase); series mostly up to 57.7 µM
About 5,700 (2.6%) of roughly 220,000 compounds were called active. Not shown: some 18% with an inconclusive outcome. The call rests on the fitted dose curve; in most records, active means well fitted inhibition curve with a large enough effect; inconclusive means small, poorly fitted or top-dose-only effect; inactive means no such curve, though single readings can be large or run the other way. The sample as a whole holds a higher share of actives than the screen did.
Outcomes you can answer with include only these: active, inactive

Use the examples below as a reference point.
| Molecule | Category |
| --- | --- |
| CC(C)(O)CCc1cccc(C(=O)NC2CCN(c3ncccc3C#N)CC2)c1 | active |
| N#Cc1ccccc1Sc1ccccc1C(=O)NC1CCCCC1 | inactive |
| O=C1COc2ccc(Nc3ccccc3F)nc2CN1Cc1ccccc1F | active |
| N#Cc1cc2c(nc1SCC(=O)NCCc1ccccc1)CCCC2 | inactive |

// param item: O=C1Cc2c(-c3ccc(F)cc3F)n[nH]c2CN1Cc1ccccc1F ; yields the recorded call
inactive

Try the molecule CCC(C(=O)Nc1ccc2c(c1)CN(Cc1cc(F)cc(F)c1)C(=O)CO2)c1ccccc1 (stereo unspecified)
inactive

Next entry: Cc1cccc(C)c1NC(=O)CSc1nc2c(cc1C#N)CCCC2
inactive

Another molecule to look at: Cc1cc(C(=O)NCCc2ccc(Cl)cc2)n(-c2ccccc2)n1
inactive

Query O=C1COc2ccc(-c3cncnc3)nc2CN1Cc1ccc(F)cc1 next
inactive

Another: Cc1ccc(CNC(=O)c2nn(C)c(=O)c3ccccc23)cc1
inactive

Can you check N#Cc1cc2c(nc1N1CCN(C3CCCC3)C(CCO)C1)CCCC2 (stereo unspecified) next?
active
